Recorded values, source PubChem BioAssay (NCI).

# System: EKVX NSCLC
# Protocol description: NCI-60 one-dose screen, 48 h (100 = growth as untreated, 0 = no growth, -100 = all killed)
# Run parameters: 10 µM unless noted
About 83,000 compounds went through this panel and 20% of them were active in at least one assay; those are over-represented in the sample as a whole. Active and inactive are the calls of the source. How the source made its calls: active means growth percent below 10; inactive means the rest.
Listed here are molecules together with their documented growth.

Molecule	Measured quantity	Result
CC(=O)ONc1ccc([N+](=O)[O-])c(C(F)(F)F)c1	growth	87.6% (inactive)

// query Field: growth (EKVX NSCLC). Entry: O=C1C=C2C(=CCOC2O)O1 (stereo not given)
// result 103% (inactive)

// query So what growth did CSc1nc(Cl)cc(N2CC2)n1 get with EKVX NSCLC?
// result 106% (inactive)

====

# Tested on: SN12C renal
# Protocol description: NCI-60 one-dose screen, 48 h (100 = growth as untreated, 0 = no growth, -100 = all killed)
# Run parameters: 10 µM unless noted
Compounds without any hit were thinned out: in the full panel of roughly 83,000, 20% have a hit.
Measured quantity: growth (%)
// return numeric value only (unit: %, not printed)

In [3]: df
Out[3]:
                              sample_smiles  measured_quantity  quantitative_result
0  CC[C@H](C)[C@H](NC(=O)[C@H]1CCCCN1C)C(=O)N(C)[C@H](CC(=O)c1nc(C(=O)N[C@@H](Cc2ccccc2)C[C@H](C)C(=O)O)cs1)C(C)C             growth                 83.8
1  Cc1cc(N(CCCl)CCCl)ccc1C=Nc1ccccc1-c1ccccc1             growth                 54.8

// query What does the data say about its growth? Entry: C[C@@]1(CCCCCCCCCc2ccc(O)cc2)C[C@]2(C)OC(=O)C[C@@H]2OO1
// result 98.5

// query For the compound CC(=O)O[C@@H]1CC[C@]2(C)[C@H]3CC[C@]4(C)C(=O)CC[C@H]4[C@@H]3C[C@@H]3SC(N)=N[C@@]32C1 , what growth is on record?
// result 77.3

// query Item C#C[C@]1(OC(=O)CCCCCC)CC[C@H]2[C@@H]3CCC4=CC(=O)CC[C@@H]4[C@H]3CC[C@@]21C has what recorded growth?
// result 47.3

// query Reported growth for NC(CCl)CCl : what is it?
// result 101

// query Would you mind telling me what growth value was observed for COc1ccc(/C=C/c2cc(OC)c(OC)c(OC)c2)cc1NC(=O)/C=C/c1ccc(F)cc1 ?
// result 39.6

// query Field request: growth | item: O=C(Nc1ccc([N+](=O)[O-])cc1)C(Cl)(Cl)Cl
// result 95.3

// query So what's the measured growth for this one? CN(C)C(=O)Oc1ccc(Br)cc1
// result 106

====

# Test system: SF-539 CNS
# Protocol description: NCI-60 one-dose screen, 48 h
# Run parameters: 10 µM unless noted
The panel holds about 83,000 compounds, 20% with a hit somewhere; the sample as a whole holds those more often. Activity calls are given as the source filed them. How the source made its calls: active means growth percent below 10; inactive means the rest.
Please state which outcome applies, choosing from active, inactive

// query Record request — test call for CCn1nccc1NC(=O)C(=O)c1cn(Cc2ccc(F)cc2)c2cccc(OC)c12
// result inactive

// query Dear all, I need the recorded test outcome for OCc1ccc2c(c1)OCO2 , thank you.
// result inactive

// query So what was the verdict on CC[CH2][Sn]([Cl])([Cl])[CH2]CC in this test?
// result inactive

// query Could you check what this test reported for COc1cc(/C=N/C2=C(C#N)C(c3ccco3)c3c(c4cc(C)ccc4oc3=O)O2)cc(OC)c1OC (centres undefined) ?
// result inactive

// query Dear colleague, could you share the recorded outcome for O=[As](O)(O)c1ccccc1[As](=O)(O)O when you have a moment?
// result inactive

// query For CNCc1cccnc1 , what call appears in the results of this test?
// result inactive

// query What is the recorded call for this compound in the test? COC(=O)[C@@H](C)C[C@H](Cc1ccc2ccccc2c1)NC(=O)c1csc([C@@H](C[C@H](C(C)C)N(C)C(=O)[C@@H](NC(=O)[C@H]2CCCCN2C)C(C)C)OC(C)=O)n1
// result inactive

// query Which outcome was assigned to C=C1[C@@H](C)[C@H]2[C@H](Cc3ccccc3)NC(=O)[C@]23[C@@H](O)/C=C/[C@@](C)(O)C(=O)[C@@H](C)C/C=C/[C@H]3[C@@H]1O in this test?
// result inactive

// query Please state the recorded outcome for this compound: O=C(O)C(Cl)(Cl)C(F)(F)F
// result inactive

// query What did the test return for Cc1ccc(N2COOC3(OOC2)C2CC4CC(C2)CC3C4)cc1 ?
// result inactive

// query Given Cc1cc(N(CCCl)CCCl)ccc1C=Nc1ccc(-c2csc(Cc3ccccc3)n2)cc1 , state the outcome it received in this test.
// result inactive

// query In this assay, the call recorded for C[C@@H]1CCC2[C@@H](C)[C@H](OC(=O)CCC(=O)NCCNC(=O)Cc3cc(=O)oc4cc(N(C)C)ccc34)O[C@@H]3O[C@]4(C)CC[C@@H]1C23OO4 (some centres undefined) was what?
// result inactive
